- targetSystem: purified recombinant human PARP (Homo sapiens, UniProt P09874)
- Construct: purchased Trevigan (Gaithersburg, Md.)
- Sequence (P09874 whole entry): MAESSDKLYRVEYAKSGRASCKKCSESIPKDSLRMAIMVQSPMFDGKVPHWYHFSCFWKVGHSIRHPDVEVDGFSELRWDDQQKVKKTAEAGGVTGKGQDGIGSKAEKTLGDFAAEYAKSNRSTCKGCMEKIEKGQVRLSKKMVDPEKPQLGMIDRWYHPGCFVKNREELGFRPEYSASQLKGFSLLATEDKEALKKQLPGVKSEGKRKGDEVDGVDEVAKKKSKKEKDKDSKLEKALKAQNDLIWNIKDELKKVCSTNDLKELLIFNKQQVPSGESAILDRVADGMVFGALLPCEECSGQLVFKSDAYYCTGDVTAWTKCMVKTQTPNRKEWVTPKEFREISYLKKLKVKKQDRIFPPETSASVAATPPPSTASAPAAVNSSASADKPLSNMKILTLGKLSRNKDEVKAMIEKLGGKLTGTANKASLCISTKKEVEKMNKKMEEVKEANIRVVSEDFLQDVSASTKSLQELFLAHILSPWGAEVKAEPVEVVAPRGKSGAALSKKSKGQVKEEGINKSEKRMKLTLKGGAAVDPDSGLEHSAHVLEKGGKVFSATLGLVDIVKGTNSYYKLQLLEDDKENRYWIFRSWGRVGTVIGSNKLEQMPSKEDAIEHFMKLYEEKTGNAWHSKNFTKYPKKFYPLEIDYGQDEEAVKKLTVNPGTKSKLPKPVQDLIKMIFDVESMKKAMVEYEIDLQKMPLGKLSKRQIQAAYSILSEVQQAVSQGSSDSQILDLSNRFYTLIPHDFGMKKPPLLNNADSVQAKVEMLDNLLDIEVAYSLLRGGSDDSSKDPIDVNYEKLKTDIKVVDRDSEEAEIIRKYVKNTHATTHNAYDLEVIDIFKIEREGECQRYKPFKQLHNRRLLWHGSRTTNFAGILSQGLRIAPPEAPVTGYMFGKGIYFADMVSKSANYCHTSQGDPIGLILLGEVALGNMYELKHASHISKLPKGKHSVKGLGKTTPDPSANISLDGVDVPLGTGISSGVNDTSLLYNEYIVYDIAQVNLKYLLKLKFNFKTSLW
- protocol: PARP enzyme assay with [3H]NAD, scintillation counting
- Format: biochemical
- particulars: Table III; read-out: approximate IC50
pIC50: −log10 of the molar value.
pIC50 for assorted compounds
measurementType: pIC50

compound=CN(C)CCCN1CCN(CC(=O)Nc2ccc3[nH]c(=O)c4cccc5c4c3c2C5)CC1 measurementtype=pIC50 measuredvalue=7.14
compound=O=C(CNCCN1CCOCC1)Nc1ccc2[nH]c(=O)c3cccc4c3c2c1C4 measurementtype=pIC50 measuredvalue=6.34
compound="CN(C)CCCN1CCN(S(=O)(=O)c2ccc3[nH]c(=O)c4cccc5c4c3c2C5)CC1 [Example 29]" measurementtype=pIC50 measuredvalue=6.96
compound=O=C(CN1CCN(CCN2CCCC2)CC1)Nc1ccc2[nH]c(=O)c3cccc4c3c2c1C4 measurementtype=pIC50 measuredvalue=6.41
compound=O=C(CN1CCN(Cc2ccncc2)CC1)Nc1ccc2[nH]c(=O)c3cccc4c3c2c1C4 measurementtype=pIC50 measuredvalue=6.57
compound=O=C(CN1CCN(c2ccncc2)CC1)Nc1ccc2[nH]c(=O)c3cccc4c3c2c1C4 measurementtype=pIC50 measuredvalue=6.69
compound=O=C(CN1CCN(c2ccc(C(F)(F)F)cc2)CC1)Nc1ccc2[nH]c(=O)c3cccc4c3c2c1C4 measurementtype=pIC50 measuredvalue=6.66
compound=O=C(CNCCN1CCCC1)Nc1ccc2[nH]c(=O)c3cccc4c3c2c1C4 measurementtype=pIC50 measuredvalue=7.31
